Where these numbers come from: patent US6727076B2

Tested on: S. typhimurium pyrCΔ73
Assay type: cell-based, Salmonella typhimurium
Measurement Label: growth stimulation by supplement (well color)

Example entries and their recorded answers appear below.
[
  {
    "Compound": "Nc1ncnc2c1ncn2[C@@H]1O[C@H](CO)[C@@H](O)[C@H]1OP(=O)(O)O [adenosine-2′-monophosphate]",
    "Assay Target": "S. typhimurium pyrCΔ73",
    "Measurement": "turned weakly purple"
  },
  {
    "Compound": "Nc1ccn([C@@H]2O[C@H](CO)[C@@H](OP(=O)(O)O)[C@H]2O)c(=O)n1 [cytidine 3′-monophosphate]",
    "Assay Target": "S. typhimurium pyrCΔ73",
    "Measurement": "turned purple"
  },
  {
    "Compound": "O=c1ccn([C@@H]2O[C@H](COP(=O)(O)O)[C@@H](O)[C@H]2O)c(=O)[nH]1 [uridine 5′-monophosphate]",
    "Assay Target": "S. typhimurium pyrCΔ73",
    "Measurement": "turned purple"
  },
  {
    "Compound": "Nc1ncnc2c1ncn2[C@@H]1O[C@H](CO)[C@@H](OP(=O)(O)O)[C@H]1O [adenosine 3-monophosphate, adenosine 3′-monophosphate]",
    "Assay Target": "S. typhimurium pyrCΔ73",
    "Measurement": "turned weakly purple"
  },
  {
    "Compound": "Nc1ncnc2c1ncn2[C@H]1C[C@H](O)[C@@H](CO)O1",
    "Assay Target": "S. typhimurium pyrCΔ73",
    "Measurement": "turned weakly purple"
  },
  {
    "Compound": "Nc1nc2c(ncn2[C@H]2C[C@H](O)[C@@H](CO)O2)c(=O)[nH]1",
    "Assay Target": "S. typhimurium pyrCΔ73",
    "Measurement": "turned weakly purple"
  },
  {
    "Compound": "Nc1nc2c(ncn2[C@@H]2O[C@H](COP(=O)(O)O)[C@@H](O)[C@H]2O)c(=O)[nH]1 [guanosine 5′-monophosphate]",
    "Assay Target": "S. typhimurium pyrCΔ73",
    "Measurement": "turned weakly purple"
  },
  {
    "Compound": "Nc1ccn([C@@H]2O[C@H](COP(=O)(O)O)[C@@H](O)[C@H]2O)c(=O)n1 [cytidine 5′-monophosphate]",
    "Assay Target": "S. typhimurium pyrCΔ73",
    "Measurement": "turned purple"
  },
  {
    "Compound": "Nc1nc2nc[nH]c2c(=O)[nH]1",
    "Assay Target": "S. typhimurium pyrCΔ73",
    "Measurement": "turned weakly purple"
  },
  {
    "Compound": "O=c1ccn([C@@H]2O[C@H](CO)[C@@H](O)[C@H]2O)c(=O)[nH]1",
    "Assay Target": "S. typhimurium pyrCΔ73",
    "Measurement": "turned purple"
  }
]

List growth stimulation by supplement (well color) for every entry below, keeping the order given.
1. Nc1ccn([C@@H]2O[C@H](CO)[C@@H](O)[C@H]2O)c(=O)n1
2. Nc1ncnc2c1ncn2[C@@H]1O[C@H](COP(=O)(O)O)[C@@H](O)[C@H]1O [adenosine 5′-monophosphate]

1. turned purple
2. turned weakly purple

List growth stimulation by supplement (well color) for every entry below, keeping the order given.
1. Nc1nc2c(ncn2[C@@H]2O[C@H](CO)[C@@H](O)[C@H]2OP(=O)(O)O)c(=O)[nH]1 [guanosine 2′-monophosphate]
2. Nc1ccn([C@@H]2O[C@H](CO)[C@@H](O)[C@H]2OP(=O)(O)O)c(=O)n1 [cytidine 2′-monophosphate]
3. O=c1cc[nH]c(=O)[nH]1
4. Nc1ccn([C@H]2C[C@H](O)[C@@H](CO)O2)c(=O)n1

["turned weakly purple", "turned purple", "turned purple", "turned purple"]
